Taken from PubChem BioAssay (NCI).

Assay: NCI Yeast Anticancer Drug Screen. Data for the bub3 strain (AID 167)
Conditions: S. cerevisiae bub3 mutant strain, at 50.0 µM, stronger effect = higher value
Compounds without any hit were thinned out: in the full panel of roughly 79,000, 15% have a hit.
QUANTITY_NAME: growth inhibition (%)

[
  {
    "COMPOUND": "CC(=O)Nc1ccc(/C=C2/C(=O)ON=C2C)cc1",
    "QUANTITY_NAME": "growth inhibition",
    "UOM": "%",
    "MEASURED_NUMBER": 3.95
  },
  {
    "COMPOUND": "CN1CN=C(Sc2ccc(Cl)cc2[N+](=O)[O-])NC1",
    "QUANTITY_NAME": "growth inhibition",
    "UOM": "%",
    "MEASURED_NUMBER": -6.9
  },
  {
    "COMPOUND": "CCOC(=O)/C(C#N)=C/c1ccc(O)c(OC)c1",
    "QUANTITY_NAME": "growth inhibition",
    "UOM": "%",
    "MEASURED_NUMBER": 12.6
  },
  {
    "COMPOUND": "CCCC(O)CN (stereo unspecified)",
    "QUANTITY_NAME": "growth inhibition",
    "UOM": "%",
    "MEASURED_NUMBER": -0.85
  },
  {
    "COMPOUND": "CCc1cccc2[nH]c3cc([N+](=O)[O-])ccc3c12",
    "QUANTITY_NAME": "growth inhibition",
    "UOM": "%",
    "MEASURED_NUMBER": -0.4
  },
  {
    "COMPOUND": "COC(=O)CC(NC(=O)C(Cc1cncn1C(=O)OCc1ccccc1)NC(=O)OCc1ccccc1)C(=O)O (stereo unspecified)",
    "QUANTITY_NAME": "growth inhibition",
    "UOM": "%",
    "MEASURED_NUMBER": 0.05
  },
  {
    "COMPOUND": "CCOC(=O)C(=[N+]=[N-])C(O)C1OC(c2ccccc2)OCC1O (stereo unspecified)",
    "QUANTITY_NAME": "growth inhibition",
    "UOM": "%",
    "MEASURED_NUMBER": 9.15
  },
  {
    "COMPOUND": "Cc1nn(C(N)=S)c(C)c1N=Nc1ccc(O)cc1",
    "QUANTITY_NAME": "growth inhibition",
    "UOM": "%",
    "MEASURED_NUMBER": -11.2
  },
  {
    "COMPOUND": "COC1OC(CO)C(O)C2OCCOCCOC3C(OC)OC(CO)C(O)C3OCCOCCOC12 (stereo unspecified)",
    "QUANTITY_NAME": "growth inhibition",
    "UOM": "%",
    "MEASURED_NUMBER": -0.5
  },
  {
    "COMPOUND": "CC1CC[N-]C(N)N1.CC1CC[N-]C(N)N1.[Cl][Pd][Cl] (stereo unspecified)",
    "QUANTITY_NAME": "growth inhibition",
    "UOM": "%",
    "MEASURED_NUMBER": -0.15
  },
  {
    "COMPOUND": "CC1CC2OC(=O)C(C)C2CC2(C)C(OC3OC(CO)C(O)C(O)C3O)OCCC12 (stereo unspecified)",
    "QUANTITY_NAME": "growth inhibition",
    "UOM": "%",
    "MEASURED_NUMBER": -6.8
  }
]

###

Assay: NCI Yeast Anticancer Drug Screen. Data for the sgs1 mgt1 strain (AID 161);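 note: 0% = growth of cultures given vehicle only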
Details: S. cerevisiae sgs1 mgt1 strain, at 50.0 µM, stronger effect = higher value
Description: Growth inhibition of yeast strains with defined genetic alterations is measured as a screen for potential anti-cancer activity. Selected strains with alterations in DNA damage repair or cell cycle control were exposed to compounds and growth inhibition was measured relative to vehicle treated controls. The strain used in this assay is sgs1 mgt1
This is part of a sample that, as a whole, favours compounds with a hit. Of some 79,000 tested, about 15% had one in any assay.
Entries and their growth inhibition

[
  {
    "COMPOUND": "[O-][n+]1c(CN2CCCCC2)nc2cccc3c2c1-c1ccccc1-3",
    "growth inhibition [%]": -3.5
  },
  {
    "COMPOUND": "N=c1c2ncn(C3OC(COP(=O)(O)O)C(O)C3O)c2ncn1O (configuration not stated)",
    "growth inhibition [%]": -6.6
  },
  {
    "COMPOUND": "CCCCCCCC(=O)NNCc1ccccc1",
    "growth inhibition [%]": 15.6
  },
  {
    "COMPOUND": "Cc1cc2c(cc1[N+](=O)[O-])OCCO2",
    "growth inhibition [%]": 4.55
  },
  {
    "COMPOUND": "NCCCn1[nH]c(=O)c2ncccc2c1=O",
    "growth inhibition [%]": -11.7
  },
  {
    "COMPOUND": "O=C(O)CCCCCCCCCCCc1ccccc1",
    "growth inhibition [%]": -19.3
  },
  {
    "COMPOUND": "NC(=O)Cc1c(F)c(F)c(F)c(F)c1F",
    "growth inhibition [%]": -0.95
  },
  {
    "COMPOUND": "CCCC(O)(c1ccccc1)c1ccccc1",
    "growth inhibition [%]": -2.95
  },
  {
    "COMPOUND": "CC(COc1ccccc1)OC=O (configuration not stated)",
    "growth inhibition [%]": 8.2
  },
  {
    "COMPOUND": "O=C1O/C(=C(\\Br)c2ccc([N+](=O)[O-])cc2)c2ccccc21",
    "growth inhibition [%]": 19.4
  },
  {
    "COMPOUND": "CCC(O)C(CC)[N+](=O)[O-] (configuration not stated)",
    "growth inhibition [%]": -2.75
  },
  {
    "COMPOUND": "Cc1cc(=O)c2cccc(-c3ccccc3)c2[nH]1",
    "growth inhibition [%]": 1.15
  },
  {
    "COMPOUND": "COCC(O)CN1CCN(c2ccccc2OC)CC1 (configuration not stated)",
    "growth inhibition [%]": -7.3
  },
  {
    "COMPOUND": "COC(=O)CC(C(C(=O)OC)C(=O)OC)N1C(=O)OC(c2ccccc2)C1c1ccccc1 (configuration not stated)",
    "growth inhibition [%]": -2.95
  },
  {
    "COMPOUND": "Nc1c(O)cccc1C(=O)O",
    "growth inhibition [%]": -4.45
  },
  {
    "COMPOUND": "C=CCOc1ccc(C2CCCCC2)cc1",
    "growth inhibition [%]": 20.5
  },
  {
    "COMPOUND": "C=CCOc1c(C)cc(C(N)=O)cc1C",
    "growth inhibition [%]": 24.6
  },
  {
    "COMPOUND": "CCOC(=O)NC(CC)CO (configuration not stated)",
    "growth inhibition [%]": -14
  },
  {
    "COMPOUND": "Cc1cc2c(SCc3ccccc3Cl)nc(N)nc2nc1C",
    "growth inhibition [%]": 5.65
  },
  {
    "COMPOUND": "C/C(=N/N(C)c1ccccc1)C(C)C",
    "growth inhibition [%]": 3.45
  },
  {
    "COMPOUND": "Cc1ccc(/C=C(/C#N)C(N)=O)cc1",
    "growth inhibition [%]": 21.4
  },
  {
    "COMPOUND": "COc1ccc2[nH]c3c4c(c5cc(C(C)(C)C)ccc5c3c2c1)C(=O)N(c1ccccc1)C4=O",
    "growth inhibition [%]": 3.1
  },
  {
    "COMPOUND": "CNC(=S)n1ncnc1N",
    "growth inhibition [%]": -2.9
  },
  {
    "COMPOUND": "COc1ccc(C(CC(=O)O)c2ccccc2)cc1 (configuration not stated)",
    "growth inhibition [%]": -2.55
  },
  {
    "COMPOUND": "COC(=O)N/N=C(/Cc1occc(=O)c1O)C(=O)Nc1ccc([N+](=O)[O-])cc1[N+](=O)[O-]",
    "growth inhibition [%]": -26.4
  },
  {
    "COMPOUND": "CO/N=C1\\CC(NC(=O)CNC(=O)OC(C)(C)C)c2ccsc21 (configuration not stated)",
    "growth inhibition [%]": 6.6
  },
  {
    "COMPOUND": "CCCCc1ccc(N=Nc2ccccc2)cc1",
    "growth inhibition [%]": -15.6
  }
]

###

Assay: NCI Yeast Anticancer Drug Screen. Data for the bub3 strain (AID 167)
Conditions: S. cerevisiae bub3 mutant strain, at 50.0 µM, stronger effect = higher value
About 79,000 compounds went through this panel and 15% of them were active in at least one assay; those are over-represented in the sample as a whole.
Listing of entries alongside the reported growth inhibition.

[
  {
    "COMPOUND": "CCOP(=O)(OCC)C(Cc1ccc(OC)c(OC)c1)N=C(c1ccccc1)c1ccccc1 (configuration not stated)",
    "growth inhibition, %": -7.55
  },
  {
    "COMPOUND": "CCCCCCCCCCN(CCCCCCCCCC)CC(O)c1cc(-c2ccc(Cl)cc2)nc2ccccc12 (configuration not stated)",
    "growth inhibition, %": 34.6
  },
  {
    "COMPOUND": "Cc1ccc(-n2cnc3c(=O)[nH]cnc32)cc1N",
    "growth inhibition, %": -6.25
  },
  {
    "COMPOUND": "O=[N+]([O-])c1ccc2[nH]nc(OCc3ccccn3)c2c1",
    "growth inhibition, %": 7.15
  },
  {
    "COMPOUND": "CC1CCOC(c2ccc(O)cc2)O1 (configuration not stated)",
    "growth inhibition, %": -14.4
  },
  {
    "COMPOUND": "Cn1c(Cl)cc2nc3ccccc3n2c1=O",
    "growth inhibition, %": 11.2
  },
  {
    "COMPOUND": "C=CCN1C(SC)=NC(=O)C1(c1ccccc1)c1ccccc1",
    "growth inhibition, %": 10.2
  },
  {
    "COMPOUND": "O=C(OCC1OC(OC(=O)c2ccccc2)C(F)C1OC(=O)c1ccccc1)c1ccccc1 (configuration not stated)",
    "growth inhibition, %": -8.25
  },
  {
    "COMPOUND": "CNNC1=NS(=O)(=O)c2cc(C(=O)OC)c(Cl)cc2S1",
    "growth inhibition, %": -6
  },
  {
    "COMPOUND": "O=c1cc(O)nc(CO)[nH]1",
    "growth inhibition, %": 3.9
  },
  {
    "COMPOUND": "CC1CC(C#N)=C2NCCCCN2C1=O (configuration not stated)",
    "growth inhibition, %": -7.9
  },
  {
    "COMPOUND": "CC1OC(OC2C(Oc3cc(O)c4c(c3)O[C@H](c3ccc(O)cc3)CC4=O)OC(CO)C(O)C2O)C(O)C(O)C1O (some centres not stated)",
    "growth inhibition, %": -0.1
  }
]
